Record form. Attribute: GI50. Fill in for each entry.
tested on: OVCAR-4; test: NCI tumour cell line growth inhibition, 48 h
Activity calls are given as the source filed them. Rule as the data show it: active = GI50 up to about 1.1 µM and inactive = higher.

GI50 reading for Cc1cccc2c1C(=O)OC2(C)c1cccc2ccccc12 (stereo not drawn) : 22.4 µM (inactive)

Please fill in: GI50 reported for CCCCCCCC/C=C\CCCCCCCC(=O)OC[C@]1(CO)CCC(=O)O1 = > 100 µM (inactive)

// sample C=CCOC(=O)C1CCC(=O)N1C(=O)C(Cl)Cl (stereo not drawn) , its GI50 was > 100 µM (inactive)

* * *

system: HCT-116; test: NCI tumour cell line growth inhibition, 48 h
The source made the active and inactive calls. Rule as the data show it: active = GI50 up to about 1.1 µM and inactive = higher.
Just give me one of these, please: active, inactive

Any idea what this test logged for Clc1nc(Cl)nc(Nc2cccc3ccccc23)n1 ?
inactive

Hi team, can someone confirm the assay call for CSC(=N\c1ccccc1)/N=C(\SCc1ccccc1)N(C)C ?
active

In this assay, the call recorded for COC(=O)C1=COC2OC3C(C(C)O)C(=O)OC34C=CC1C24 (centres undefined) was what?
inactive

State the result this test recorded for O=C(NCCc1ccccn1)c1ccc2cc(C(=O)N3CC(CCl)c4ccc([N+](=O)[O-])cc43)[nH]c2c1 (centres undefined) .
inactive

Status in this test for Nc1nc(N)c2ncn(CCCC(c3ccccc3)P(=O)(O)O)c2n1 (centres undefined) ?
inactive

Per the assay record, what outcome was assigned to CC(=O)O[C@H]1C(=O)[C@@]2(C)[C@H]([C@H](OC(=O)c3ccccc3)[C@]3(O)C[C@H](OC(=O)[C@H](O)[C@@H](NC(=O)c4ccccc4)c4ccccc4)C(C)=C1C3(C)C)[C@]1(OC(C)=O)CO[C@@H]1C[C@@H]2O ?
active

What was the test verdict on CC(/C=N/N=C1NCCCN1)=N\N=C1NCCCN1 ?
inactive

Record request — test call for C=C1CC2CC(O)CC(C1)C2 (centres undefined)
inactive

// param item: O=[N+]([O-])c1ccc2nc(Nc3ccccc3)c(Nc3ccccc3)nc2c1 ; yields the recorded call
active

* * *

test system: DU-145; experiment: NCI tumour cell line growth inhibition, 48 h
Active and inactive are the calls of the source. Rule as the data show it: active = GI50 up to about 1.1 µM and inactive = higher.
READOUT TYPE: GI50

# value of GI50, DU-145, item OC1(c2ccc3ccccc3c2)c2c(c3ccccc3c3ccccc23)C2=NCCN21 (configuration not stated) = 16.9 µM (inactive)

Field GI50 (DU-145), entry CCN1CC2=C(NC(=S)NC2c2ccc(Cl)cc2)/C(=C/c2ccc(Cl)cc2)C1 (configuration not stated) : > 100 µM (inactive)

Considering CCCCn1c(C)c(C)c2c1NN=C(C#N)S2(=O)=O , its GI50 with DU-145 was recorded as > 100 µM (inactive)

Case C=CCOC1=C(OCC=C)C(C2COC(C)(C)O2)OC1=O (configuration not stated) , DU-145, GI50 recorded as > 100 µM (inactive)

The observed GI50 for CCOC(=O)c1ccc(N(C)Cc2cnc3nc(N)nc(N)c3n2)cc1 when tested with DU-145 stands at 15.8 µM (inactive)

# value of GI50, DU-145, item COc1ccc(/N=N/C(=O)NC(Cc2ccccc2)C(=O)O)cc1 (configuration not stated) = > 100 µM (inactive)

Record for O=C(CCC(=O)c1ccsc1)c1ccsc1 under target or system DU-145: GI50 reported as > 100 µM (inactive)

Bench note, DU-145: Cc1ccc(NC(=O)CC(=O)N2N=C(c3ccccc3)C(/N=N/c3ccc(S(=O)(=O)CCOS(=O)(=O)O)cc3)C2=O)cc1 (configuration not stated) , GI50 reads > 100 µM (inactive)

GI50 value, target or system DU-145, for C=CCN(CCNS(=O)(=O)c1ccc(C)cc1)S(=O)(=O)c1ccc(C)cc1 : 54.6 µM (inactive)

# c1ccc(-c2cn3c(nc4ccccc43)c(-c3ccccc3)n2)cc1 with DU-145: GI50 is > 100 µM (inactive)

Summary line: C=C1C(=O)O[C@@H]2C[C@@H](C)[C@@H]3C=CC(=O)[C@@]3(C)[C@@H](O)[C@H]12 [HELENALIN] , DU-145, reported GI50 = 3.79 µM (inactive)

Considering CC1[C@@H](OCc2ccccc2)COC(=O)N1Cc1ccccc1 (some centres not stated) , its GI50 with DU-145 was recorded as > 100 µM (inactive)

Value source: ChEMBL document CHEMBL1201862
